settings: in methanol, 283.15 K
measured_property: solubility (mole fraction)

{"mol": "COc1cc2c(cc1OC)C(=O)CC2", "measured": 0.0097}

###

conditions: in isopropyl acetate, 318.15 K

{"mol": "COc1cc2c(cc1OC)C(=O)CC2", "solubility (mole fraction)": 0.0933}

###

conditions: in methanol, 298.15 K
measured_property: solubility (mole fraction)

{"mol": "COc1cc2c(cc1OC)C(=O)CC2", "measured": 0.0238}

###

conditions: in methanol, 318.15 K
measured_property: solubility (mole fraction)

{"mol": "COc1cc2c(cc1OC)C(=O)CC2", "measured_property": "solubility (mole fraction)", "measured": 0.071}
